Value source: paper PMC7177633

system: MCF-7 cells; test: Uptake in the presence of OCT and MATE inhibitors, MCF-7 cells; format: in vitro ADME, human; details: compound and inhibitor 400 and 800 µmol/L, 10 min, 37 °C
measure: uptake in the presence of methenamine, MCF-7

CN(C)C(=N)N=C(N)NS(=O)(=O)c1ccc(Br)cc1 : significantly decreased
CN(C)C(=N)N=C(N)NS(=O)(=O)c1ccccc1Cl : significantly decreased

====

System: MCF-7 cells
Test: Uptake in the presence of OCT and MATE inhibitors, MCF-7 cells
Assay type: in vitro ADME, human
Conditions: compound and inhibitor 400 and 800 µmol/L, 10 min, 37 °C
Procedure: The uptake of sulfonamide derivatives of metformin (1–9) in MCF-7 and MDA-MB-231 cells was studied also in the presence of disopyramide, cimetidine (OCT1 and 3 inhibitors), lopinavir (OCT and PMAT inhibitor) and methenamine (MATE and OCT2 inhibitors). The cells were incubated (37 °C, 10 min) with compounds 1–9 at concentrations of 400 and 800 μmol/L and inhibitors (disopyramide, cimetidine, lopinavir or methenamine) in 250 μL of prewarmed HBSS buffer. […]
measure: uptake in the presence of disopyramide, MCF-7

CN(C)C(=N)N=C(N)NS(=O)(=O)c1cccc(Br)c1 : significantly reduced
CN(C)C(=N)N=C(N)NS(=O)(=O)c1ccc(Br)cc1 : significantly reduced
